Record form. Attribute: EC15 (concentration inducing 15% activation). Fill in for each entry.
# SUBJECT OF TEST: human PPARγ1 (Homo sapiens)
# ASSAY PROTOCOL: GeneBLAzer PPARγ1 non-DA reporter gene assay
Answers are plain numbers, in µM.

MOLECULE	REPORTED RESULT
Brc1ccc(Oc2ccc(Br)cc2Br)c(Br)c1 [BDE47, 2,2′,4,4′-tetrabromodiphenyl ether]	5.2

Take each entry in turn and give its EC15 (concentration inducing 15% activation).
1. CCCCC(CC)COC(=O)c1c(Br)c(Br)c(Br)c(Br)c1C(=O)O (stereo not shown) [TBMEHP]
2. CC(C)COC(=O)c1ccccc1C(=O)OCC(C)C [DiBP, diisobutyl phthalate]
3. Oc1c(Br)cc(Br)cc1Br [2,4,6-TBP, 2,4,6-tribrominated phenol]

**A:**
[0.53, 4.47, 5.89]

* * *

# SUBJECT OF TEST: human PPARγ1 (Homo sapiens, UniProt P37231)
# ASSAY PROTOCOL: GeneBLAzer PPARγ1 non-DA reporter gene assay
# MEASUREMENT CONDITIONS: HEK293, read-out: ATVmax: maximal activation% of the tested compounds relative to rosiglitazone
PROPERTY MEASURED: Emax (%)
One number for each entry, in %.

Before answering, review these 2 worked examples.
COMPOUND	UNITS	REPORTED RESULT
Brc1ccc(Oc2ccc(Br)cc2Br)c(Br)c1 [BDE47, 2,2′,4,4′-tetrabromodiphenyl ether]	%	20
CC(C)COC(=O)c1ccccc1C(=O)OCC(C)C [DiBP, diisobutyl phthalate]	%	25

Then this compound:
**Q:** Request the reported Emax associated with CCCCOC(=O)c1ccccc1C(=O)OCCCC [DBP, dibutyl phthalate]
**A:** 23

* * *

# SUBJECT OF TEST: human PPARγ1 (Homo sapiens)
# ASSAY PROTOCOL: GeneBLAzer PPARγ1 non-DA reporter gene assay
Classes by EC20 (concentration inducing 20% activation): lower (below 3 µM), middle (3 µM to below 7 µM), upper (7 µM or more)

Answered examples (4):
MOLECULE	ASSIGNED CATEGORY
CCCCC(CC)COC(=O)c1c(Br)c(Br)c(Br)c(Br)c1C(=O)O (stereo not shown) [TBMEHP]	lower
O=P(Oc1ccccc1)(Oc1ccccc1)Oc1ccccc1 [TPP, triphenyl phosphate]	middle
O=C(O)c1cc(Br)c(Br)c(Br)c1Br [TBBA]	upper
[Cl][Sn]([c]1ccccc1)([c]1ccccc1)[c]1ccccc1 [TPT, triphenyltin chloride]	lower

**Q:** State the band of CC(C)COC(=O)c1ccccc1C(=O)OCC(C)C [DiBP, diisobutyl phthalate]
**A:** upper

**Q:** Then Oc1c(I)cc(I)cc1I [2,4,6-TIP, 2,4,6-triiodinated phenol] ?
**A:** upper

**Q:** Then CCCCC/C=C/C=C1/C(=O)C=C[C@@H]1C/C=C\CCCC(=O)O [15d-PJG2, reference compound] ?
**A:** lower

**Q:** Then CCCCOC(=O)c1ccccc1C(=O)OCc1ccccc1 [BzBP, benzylbutyl phthalate] ?
**A:** middle
